tested on: A498 renal; test: NCI tumour cell line growth inhibition, 48 h
recorded_metric: TGI

Worked examples, 5 compounds total:
N#Cc1c(-c2ccco2)cc(-c2ccccc2)[nH]c1=O
> 100 µM
O=C(NCCN1CCNCC1)c1ccc(Nc2nc3ccccc3c3occc23)cc1
36.3 µM
c1ccc2[nH]c(CNc3ccc(C4C[Se]N=N4)cc3)nc2c1 (configuration not stated)
> 100 µM
c1ccc([P+](CCCCCCCC[P+](c2ccccc2)(c2ccccc2)c2ccccc2)(c2ccccc2)c2ccccc2)cc1
> 86.4 µM
COc1ccc(Nc2nccc(N3CCN(c4c5ccc(Cl)cc5nc5ccc(OC)cc45)CC3)n2)cc1
31 µM

Pending compound:
Look up TGI: COc1ccc(-c2cnoc2-c2cc(OC)c3c(c2)OCCO3)cc1
0.164 µM

---

test system: SNB-75 CNS; test: NCI tumour cell line growth inhibition, 48 h
recorded_metric: TGI (µM)
Respond with the bare value in µM.

Worked examples, 10 molecules total:
C=C1C(=O)C23C(O)CC4C5(C)CCCC4(C(O)OC5)C2C(OC(C)=O)CC1C3O (stereo not given)
16.6
C=CC1=C(C)C2=NC1=CC1=NC(=CC3=C(C)C4=C(O)[C@H](C(=O)OC)C(=C5NC(=C2)[C@@H](C)[C@@H]5CCC(=O)O)C4=N3)C(CC)=C1C
8.25
COc1cc(C2c3cc4c(cc3[C@@H](Nc3ccc5c(c3)OCCO5)C3COC(=O)[C@H]23)OCO4)cc(OC)c1O (stereo not given in full)
5.59
CC(=O)n1nc(-c2ccccc2)n(/N=C/c2ccc([N+](=O)[O-])o2)c1=O
26.8
COc1cc2nc(-c3ccc(C(F)(F)F)cc3)cc(OCCCN3CCCC3)c2cc1OC
4.49
Cc1c2ccncc2c(C)c2c1[nH]c1ccc(O)c(OCC(F)(F)F)c12
21.1
O=C1CS(=O)(=O)C(c2cccc(Oc3ccccc3)c2)N1c1cc(Cl)ccc1Cl (stereo not given)
33.1
COc1ccc(Oc2cnn(C(Br)(Br)C(C)=O)c(=O)c2Br)cc1
29.4
CCOC(=O)C1(Cc2ccc3ccccc3c2)CCCCC(=O)N1 (stereo not given)
9.22
Cc1cccc(N=Nc2ccc(N=Nc3c(O)ccc4ccccc34)cc2C)c1
37.8

Lookup: TGI / SNB-75 CNS / CN(C)c1cccc2c1C(=O)C=CC21c2ccc(N(C)C)c3c(N(C)C)ccc(c23)C(c2ccccc2)C1c1ccccc1 (stereo not given)
30.9

Lookup: TGI / SNB-75 CNS / CCN(CCCl)c1cc(CN(C)C)cc(NC(=O)c2ccc(C(=O)Nc3cccc(CN(C)C)c3)cc2)c1
3.18

Lookup: TGI / SNB-75 CNS / C=CC(=O)N1C/C(=C\c2ccc(Cl)cc2)C(=O)/C(=C/c2ccc(Cl)cc2)C1
1.64

Lookup: TGI / SNB-75 CNS / N#CC(C#N)=c1c2nsnc2c(=C(C#N)C#N)c2nsnc12
3.01

Lookup: TGI / SNB-75 CNS / Nc1cc(-c2ccc(Cl)cc2)nn1-c1nnc(/C=C/c2ccco2)c(=O)[nH]1
41.4

Lookup: TGI / SNB-75 CNS / O=C1/C(=C/c2cccc([N+](=O)[O-])c2)Sc2scc(-c3ccc([N+](=O)[O-])cc3)[n+]21
32.1

Lookup: TGI / SNB-75 CNS / CSc1ccc(N(C)c2nc(C)nc3c2CCC3)cc1
42.1

Lookup: TGI / SNB-75 CNS / O=C1C2=Nc3ccccc3C(O)(C(=O)O)N2c2ccccc21 (stereo not given)
74.2
